The values you see were collected from ChEMBL document CHEMBL2218924.

Subject Of Test: Tyrosine-protein kinase Lck (Homo sapiens) (UniProt P06239)
Sequence (P06239 2-509 limits assumed): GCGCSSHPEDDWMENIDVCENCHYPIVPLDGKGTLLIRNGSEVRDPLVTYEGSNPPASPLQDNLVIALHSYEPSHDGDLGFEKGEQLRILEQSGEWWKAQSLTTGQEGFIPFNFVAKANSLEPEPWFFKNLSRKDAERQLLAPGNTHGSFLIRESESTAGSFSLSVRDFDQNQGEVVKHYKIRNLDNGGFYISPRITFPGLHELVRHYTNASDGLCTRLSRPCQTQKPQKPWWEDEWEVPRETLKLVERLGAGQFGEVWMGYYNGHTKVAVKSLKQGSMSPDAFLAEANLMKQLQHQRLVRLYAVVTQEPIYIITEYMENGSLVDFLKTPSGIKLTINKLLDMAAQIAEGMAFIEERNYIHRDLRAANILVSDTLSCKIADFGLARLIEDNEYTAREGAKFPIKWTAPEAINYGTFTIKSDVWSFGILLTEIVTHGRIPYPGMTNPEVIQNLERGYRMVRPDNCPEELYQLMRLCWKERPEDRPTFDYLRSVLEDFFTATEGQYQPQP
Measurement Context: at 1 µM

{"columns": ["Molecule", "Subject Of Test", "Uom", "residual activity"],
 "data": [
  ["CC(C)n1cnc2/c(=N/c3cccc(Cl)c3)nc(NCCO)[nH]c21", "Tyrosine-protein kinase Lck (Homo sapiens) (UniProt P06239)", "%", 48],
  ["COc1ccc(CNc2nc(N(CCO)CCO)nc3c2ncn3C(C)C)cc1", "Tyrosine-protein kinase Lck (Homo sapiens) (UniProt P06239)", "%", 62],
  ["Nc1ccc2ncnc(NCCc3ccc(Oc4ccccc4)cc3)c2c1", "Tyrosine-protein kinase Lck (Homo sapiens) (UniProt P06239)", "%", 76],
  ["c1ccc2c(-c3ccncc3)c[nH]c2c1", "Tyrosine-protein kinase Lck (Homo sapiens) (UniProt P06239)", "%", 102],
  ["COc1cc2ncnc(Nc3ccc(O)c(Br)c3)c2cc1OC", "Tyrosine-protein kinase Lck (Homo sapiens) (UniProt P06239)", "%", 27],
  ["CC(=O)O/N=C1\\C(=C2\\C(=O)Nc3cc(Br)ccc32)Nc2ccccc21", "Tyrosine-protein kinase Lck (Homo sapiens) (UniProt P06239)", "%", 16],
  ["O=C1c2ccccc2-[n+]2ccc3c([nH]c4ccccc43)c21", "Tyrosine-protein kinase Lck (Homo sapiens) (UniProt P06239)", "%", 85],
  ["Oc1ccc(-c2nc(-c3ccc(F)cc3)c(-c3ccncc3)[nH]2)cc1", "Tyrosine-protein kinase Lck (Homo sapiens) (UniProt P06239)", "%", 61],
  ["O=C1NC(=O)/C(=C\\c2ccc3nccnc3c2)S1", "Tyrosine-protein kinase Lck (Homo sapiens) (UniProt P06239)", "%", 108],
  ["COc1ccc(C(=O)Nc2sc3c(c2C(N)=O)CCCC3)cc1OC", "Tyrosine-protein kinase Lck (Homo sapiens) (UniProt P06239)", "%", 100],
  ["O=C1Nc2ccccc2/C1=C1/Nc2ccccc2/C1=N\\OCCC(O)CO (stereo not drawn)", "Tyrosine-protein kinase Lck (Homo sapiens) (UniProt P06239)", "%", 4],
  ["c1ccc(-c2n[nH]cc2-c2ccnc3ccccc23)nc1", "Tyrosine-protein kinase Lck (Homo sapiens) (UniProt P06239)", "%", 123],
  ["Cc1cccc(-c2[nH]c(C(C)(C)C)nc2-c2ccc3c(c2)OCO3)n1", "Tyrosine-protein kinase Lck (Homo sapiens) (UniProt P06239)", "%", 146],
  ["COc1cc2ncnc(Nc3ccc(NC(=O)c4ccccc4)cc3)c2cc1OC", "Tyrosine-protein kinase Lck (Homo sapiens) (UniProt P06239)", "%", 70],
  ["CNc1cc2c(Nc3cccc(Br)c3)ncnc2cn1", "Tyrosine-protein kinase Lck (Homo sapiens) (UniProt P06239)", "%", 87],
  ["O=c1cc(-c2cccc3c2Sc2ccccc2S3)oc(N2CCOCC2)c1", "Tyrosine-protein kinase Lck (Homo sapiens) (UniProt P06239)", "%", 103],
  ["Cc1cncc2cccc(S(=O)(=O)N3CCCN(C(=O)CN)C[C@H]3C)c12", "Tyrosine-protein kinase Lck (Homo sapiens) (UniProt P06239)", "%", 97],
  ["CC(C)n1cnc2c(NCc3ccccc3)nc(NCCCO)nc21", "Tyrosine-protein kinase Lck (Homo sapiens) (UniProt P06239)", "%", 89],
  ["Nc1cccc(-c2cc3c(Oc4cccc(O)c4)ncnc3[nH]2)c1", "Tyrosine-protein kinase Lck (Homo sapiens) (UniProt P06239)", "%", 3],
  ["Ic1cccc(CSc2nnc(-c3ccncc3)o2)c1", "Tyrosine-protein kinase Lck (Homo sapiens) (UniProt P06239)", "%", 58],
  ["CN(C)CCCn1cc(C2=C(c3c[nH]c4ccccc34)C(=O)NC2=O)c2ccccc21", "Tyrosine-protein kinase Lck (Homo sapiens) (UniProt P06239)", "%", 109],
  ["Oc1c2ccccc2c2c3c(cccc13)N=N2", "Tyrosine-protein kinase Lck (Homo sapiens) (UniProt P06239)", "%", 70],
  ["Nc1n[nH]c2nnc(-c3c(-c4ccccc4)nn4ccccc34)cc12", "Tyrosine-protein kinase Lck (Homo sapiens) (UniProt P06239)", "%", 88]
]}
